# Test system: NCI/ADR-RES ovarian
# Assay: NCI-60 one-dose screen, 48 h
# Condition context: 10 µM unless noted
Compounds without any hit were thinned out: in the full panel of roughly 83,000, 20% have a hit. Active and inactive are the calls of the source. The calls were made as follows: active = growth percent below 10; inactive = the rest.
Just give me one of these, please: active, inactive

Q. // param item: COc1ccccc1NC(=O)n1c(=O)cc(C)c2ccc(O)cc21 ; yields the recorded call
A. inactive

Q. // param item: CN1CCN(CC(=O)N(C)c2ccc(N=C(c3ccccc3)c3c(O)[nH]c4ccc([N+](=O)[O-])cc34)cc2)CC1 ; yields the recorded call
A. inactive

Q. // param item: O=C(Nc1ncc(Cc2ccc(Cl)cc2)s1)C1=NCCCCN1 ; yields the recorded call
A. inactive

Q. // param item: COC(CCP(=O)(c1ccccc1)c1ccccc1)(C(=O)c1ccccc1)c1ccccc1 (stereo not given) ; yields the recorded call
A. inactive

Q. // param item: O=C1Nc2ccccc2/C1=C/c1cccn1CCCCCCn1c2ccccc2c(=O)c2ccccc21 ; yields the recorded call
A. inactive

Q. // param item: CC(=O)c1ccc(Nc2nccc(-c3ccc(Cl)cc3)n2)cc1 ; yields the recorded call
A. inactive

Q. // param item: Cc1cc2c(c(C)n1)CN(C(=O)Nc1nc(-c3cncs3)ccc1N)C2 ; yields the recorded call
A. inactive

Q. // param item: Cn1ccnc1C(=O)/C=C/c1ccc(C(=O)Nc2c(F)c(F)c(F)c(F)c2F)cc1 ; yields the recorded call
A. active

Q. // param item: CCCCCC(C)(O)C(C(=O)O)c1ccccc1 (stereo not given) ; yields the recorded call
A. inactive

Q. // param item: CC(C)CCc1nc2ccc(NCc3ccc(OCCN4CCC(C)CC4)cc3)cc2[nH]1 ; yields the recorded call
A. inactive
